test system: HeLa cells; assay: Compound screen by flow cytometry: HeLa cell count as surrogate readout of cell viability (z-scoreHeLa); format: cell-based, human; conditions: human
ASSAY ENDPOINT: cell count rep 1

These solved cases illustrate the format of a correct answer.
CCN(CC)CCOc1ccc(Nc2ncc3cc(-c4c(Cl)cccc4Cl)c(=O)n(C)c3n2)cc1: 895
Cc1ccc(O)cc1Nc1ccnc2ccc(S(C)(=O)=O)cc12 [GW559768X]: 30393
O=C1Nc2ccc(I)cc2C1=Cc1cc(Br)c(O)c(Br)c1 [GW305074X]: 1595

API: the following record is the query input.
Look up cell count rep 1 with HeLa cells for this compound: COc1cc2c(Nc3ccc(NC(=O)c4ccccc4)cc3)ncnc2cc1OCCCN1CCOCC1 [GSK301329A]
4010

====

test system: HeLa cells; assay: Compound screen by flow cytometry: HeLa cell count as surrogate readout of cell viability (z-scoreHeLa); format: cell-based, human; details: PKIS compound screen, replicate 3
Consider the following compounds; for each one, report its z-scoreHeLa rep 3.
Numbers only.

These solved cases illustrate the format of a correct answer.
CN1C(=O)C(Nc2ccccc2)=C(c2ccccc2)C1=O: 0.83
Nc1ncc(-c2cccnc2)c2scc(-c3ccc4c(c3)CCN4C(=O)Cc3ccccc3)c12 [GSK683281A]: 0.0253
[O-][S+]1CCN(Cc2ccc(-c3ccc4ncnc(Nc5ccc(OCc6ccccc6)c(F)c5)c4c3)o2)CC1 [GW576924A]: 0.0442

API: the following record is the query input.
Quick one: z-scoreHeLa rep 3 of COc1cc(Nc2ncc3c(C)nc(-c4cc5ccccc5[nH]4)n3n2)cc(OC)c1OC [GW869516X] ?
1.60

====

System: HeLa cells
Assay: Compound screen by flow cytometry: HeLa cell count as surrogate readout of cell viability (z-scoreHeLa)
Format: cell-based, human
Details: compound screen, HeLa cell count, mean of 3 replicates
Experimental: The cells were resuspended in cell culture medium without antibiotics, seeded with 10,000 cells/well into Costar flat-bottom 96-well plates (Corning, Amsterdam, the Netherlands), and were incubated overnight at 37°C/5% CO2. […] The calculated mean MOI throughout all experiments was 6.8 ± 4.6 (mean ± SD). […] HeLa cells were harvested by trypsinization and fixed with 1% paraformaldehyde. Samples were measured on a FACSLyric with HTS extension (BD Biosciences). […]
Consider the following compounds; for each one, report its z-scoreHeLa mean.
One number for each entry.

These solved cases illustrate the format of a correct answer.
Cl.Cl.Cl.Fc1ccc(-c2ncn(C3CCNCC3)c2-c2ccnc(Nc3ccccc3)n2)cc1: -2.33
Nc1nc(-c2ccc3c(c2)C(=Cc2cc(Br)c(O)c(Br)c2)C(=O)N3)cs1 [GW407323A]: 1.06
O=C(c1ccc(-c2cc(-c3c[nH]nc3-c3ccccn3)ccn2)cc1)N1CCCC1 [GW792479X]: 0.58

State the recorded z-scoreHeLa mean for every item in the following list.
1. COc1ccc(-c2oc3ncnc(N)c3c2-c2ccc(NC(=O)Nc3cc(C(F)(F)F)ccc3F)cc2)cc1 [GW768505A]
2. Cc1ccc2c(c1)C(=NNc1ccc(S(N)(=O)=O)cc1)C(=O)N2 [GW275944X]
3. CC(=O)N1CCN(c2ccc(Nc3nccc(-c4sc(C(C)C)nc4-c4cccc(NS(=O)(=O)c5cccc(Cl)c5)c4)n3)cn2)CC1 [GSK1660437A]
4. COC(=O)Nc1nc2ccc(Oc3ccc(NC(=O)Nc4cc(C(F)(F)F)ccc4Cl)cc3)cc2[nH]1 [GW697465A]

[-0.89, -0.43, -0.33, 0.00465]

State the recorded z-scoreHeLa mean for every item in the following list.
1. Oc1ccc2ncnc(Nc3ccc(OCc4ccccc4)cc3)c2c1 [GI262866A]
2. Cc1ccnc2ccc(-c3sc(N)nc3-c3ccccn3)nc12 [GW777257X]
3. O=C(Nc1ccc(Oc2ccc3nc(NC(=O)c4ccco4)[nH]c3c2)cc1)Nc1cc(C(F)(F)F)ccc1F [GW683134A]
4. NCCCC(NC(=O)c1cc(Br)c(-c2ccnc3[nH]ccc23)s1)c1ccccc1 (stereo not drawn) [GSK1287544A]
5. Nc1ncc(-c2cccc(S(N)(=O)=O)c2)c2scc(-c3ccc(F)c(Cl)c3)c12 [GW856804X]

0.84
-0.81
-0.87
1.43
0.73

State the recorded z-scoreHeLa mean for every item in the following list.
1. CCNC(=O)O[C@H]1CN[C@H](C#Cc2cc3ncnc(Nc4ccc(OCc5cccc(F)c5)c(Cl)c4)c3s2)C1 [GSK192082A]
2. Cc1c(O)cccc1Nc1ccnc2ccc(C(F)(F)F)cc12 [GW466413A]

-1.04
-0.80

Quick one: z-scoreHeLa mean of CCn1c(-c2nonc2N)nc2c(C#CC(C)(C)O)nc(OC[C@H](N)c3ccccc3)cc21 [GSK943949A] ?
-2.76

====

Consider the following compounds; for each one, report its cell count rep 2.
Test system: HeLa cells
Assay: Compound screen by flow cytometry: HeLa cell count as surrogate readout of cell viability (z-scoreHeLa)
Assay type: cell-based, human
Conditions: PKIS compound screen raw data, HeLa cell count, replicate 2
Description: The cells were resuspended in cell culture medium without antibiotics, seeded with 10,000 cells/well into Costar flat-bottom 96-well plates (Corning, Amsterdam, the Netherlands), and were incubated overnight at 37°C/5% CO2. […] The calculated mean MOI throughout all experiments was 6.8 ± 4.6 (mean ± SD). […] HeLa cells were harvested by trypsinization and fixed with 1% paraformaldehyde. Samples were measured on a FACSLyric with HTS extension (BD Biosciences). […]

Cc1cccc(-c2nc(Nc3ccc4c(cnn4C)c3)c3ccccc3n2)n1 [GW876731X]: 27157

State the recorded cell count rep 2 for every item in the following list.
1. COc1cccc(NC(=O)NCCNc2ccnc(Nc3ccc(F)cc3)n2)c1 [GSK1379879A]
2. CCn1c(-c2nonc2N)nc2c(C#CC(C)(C)O)nc(OC[C@@H](N)c3ccccc3)cc21 [GSK938890A]
3. Cc1cc(-c2ccnc(Nc3cccc(C#N)c3)n2)cc(C)c1O [GSK1440913A]
4. COc1cc(Nc2nccc(N3CCC(NC(=O)Nc4cccc(C(C)=O)c4)C3)n2)cc(OC)c1OC (centres unmarked) [GSK1379753A]
5. c1ccc(-c2n[nH]cc2Nc2ccnc3ccccc23)nc1 [GW694077X]
6. O=c1cc(N2CCOCC2)nc2n(Cc3cccc(Cl)c3)ccn12 [GSK2296823A]
7. COc1ccc(CNC(=O)NC2CCN(c3ccnc(Nc4cc(OC)c(OC)c(OC)c4)n3)C2)cc1 (centres unmarked) [GSK1379748A]

1. 3480
2. 35410
3. 3957
4. 28667
5. 28509
6. 34515
7. 4556

State the recorded cell count rep 2 for every item in the following list.
1. Cc1cc(N2CCC(NS(=O)(=O)c3ccc(F)cc3)CC2)nc(Nc2cccc(C#N)c2)n1 [GSK1653537A]
2. COc1ccc(CNC(=O)NC2CCN(c3ccnc(Nc4ccc(F)cc4)n3)CC2)cc1 [GSK1379788A]
3. COC(=O)Nc1nc2ccc(Oc3ccc(NC(=O)Nc4cc(C(F)(F)F)ccc4Cl)cc3)cc2[nH]1 [GW697465A]
4. CCOc1ccc2c(-c3ccnc(Nc4cccc(C(F)(F)F)c4)n3)cnn2n1 [GW811761X]

1. 4678
2. 5935
3. 3894
4. 40447

State the recorded cell count rep 2 for every item in the following list.
1. CC(C)c1nc(-c2cccc(NS(=O)(=O)c3c(F)cccc3F)c2F)c(-c2ccnc(Nc3ccc(N4CCOCC4)nc3)n2)s1 [GSK2008607A]
2. Cc1c2ccc(N(C)c3ccnc(Nc4cccc(S(N)(=O)=O)c4)n3)cc2nn1C [GW771127A]
3. CS(=O)(=O)CCNCc1nc(-c2ccc3ncnc(Nc4ccc(OCc5ccccc5)c(Cl)c4)c3c2)cs1 [GW582764A]

1: 14585; 2: 29599; 3: 3519

State the recorded cell count rep 2 for every item in the following list.
1. O=C(NC1CCN(c2ccnc(Nc3ccc(F)cc3)n2)C1)c1cc2ccccc2s1 (centres unmarked) [GSK1379716A]
2. Fc1ccc(-c2ncn(C3CCNCC3)c2-c2ccnc(Oc3ccc(F)c(F)c3)n2)cc1

17173
28239

====

Consider the following molecules; for each one, report its cell count rep 3.
tested on: HeLa cells; assay: Compound screen by flow cytometry: HeLa cell count as surrogate readout of cell viability (z-scoreHeLa); format: cell-based, human; conditions: PKIS compounds raw data; replicate 3; HeLa cell count
Give bare numbers.

These solved cases illustrate the format of a correct answer.
O=C(Nc1n[nH]c2cc(-c3ccsc3)ccc12)C1CC1: 8200
Cn1cncc1-c1cc2c(Nc3ccc(OCc4ccccc4)cc3)ncnc2cn1 [GW281179X]: 4357
Fc1cccc(COc2ccc(Nc3ncnc4sc(-c5ccc[nH]5)cc34)cc2Cl)c1 [GW707818B]: 7651
COc1cccc(C2=C(Nc3ccc(Cl)c(C(=O)O)c3)C(=O)NC2=O)c1: 9583
COc1ccc2ncnc(Nc3ccc(OCc4ccccc4)cc3)c2c1 [GI261520A]: 12782

State the recorded cell count rep 3 for every item in the following list.
1. Cc1cccc(Cn2ccn3c(=O)cc(N4CCOCC4)nc23)c1 [GSK2297542A]
2. CS(=O)(=O)CCN(CC#N)Cc1ccc(-c2ccc3ncnc(Nc4ccc(OCc5cccc(F)c5)c(Cl)c4)c3c2)o1 [GW616030X]
3. O=C(Nc1n[nH]c2nc(-c3ccccc3)c(Br)cc12)C1CC1
4. COc1ccc2[nH]c3c4[nH]c5ccc(OC)cc5c4c4c(c3c2c1)C(=O)NC4=O [GW296115X]

1. 7025
2. 5918
3. 6327
4. 6955
